# Test system: HCT-15
# test description: In vitro soft agar colony forming growth assay
# Assay type: cell-based
# conditions used: HCT-15, one week
endpoint name: IC50
Give the number first and the unit second.

Please report IC50 for the following compound: N.N.[Cl][Pt][Cl] [Cisplatin]
40 µM
